Data origin: ChEMBL document CHEMBL1133584

Experiment: Selectivity ratio of IC50 NEP/IC50 ECE
Measured Selectivity values are reported for all entries that follow.
Please reply with the number alone, leaving off any unit.

Known results for molecules:
O=C(O)[C@H](Cc1ccc2c(c1)oc1ccccc12)NC(CCc1cccc2cccnc12)P(=O)(O)O (stereo in doubt; 40n') ... 240
O=C(O)[C@H](Cc1ccc2c(c1)oc1ccccc12)NC(CCc1cccc2cccnc12)P(=O)(O)O (stereo in doubt; 40m') ... 4210
COc1cccc(CCC(N[C@@H](Cc2ccc3c(c2)oc2ccccc23)C(=O)O)P(=O)(O)O)c1OC (stereo in doubt; 40c) ... 1260
CC(C)C[C@H](NC(=O)[C@H](CC#Cc1ccc(F)cc1F)NCP(=O)(O)O)C(=O)N[C@@H](C)C(=O)O ... 725

Ask | Could you share which Selectivity value was measured for COc1cc(CCC(N[C@@H](Cc2ccc3c(c2)oc2ccccc23)C(=O)O)P(=O)(O)O)cc(OC)c1OC (some centres not stated) ?
Reply | 818
